- Test system: HOP-18
- ASSAY PROTOCOL: NCI tumour cell line growth inhibition, 48 h
Active and inactive are the calls of the source. No stated cut-off is given here; in the data, active = GI50 up to about 1.1 µM and inactive = higher.
Measured GI50, listed per entry.

Observe how each entry below is paired with its result.
>>> result("Cc1ccccc1C(=O)Oc1ccc(Oc2ccccc2)cc1")
"> 100 µM (inactive)"
>>> result("O=C(CSc1nnc(-c2ccc(/N=C\\c3ccc(Cl)cc3)cc2)o1)Nc1ccccc1")
"54.2 µM (inactive)"

Query (compound): Cc1nc(C(N)=O)c(N)n1CCN1CCN(C(=O)CCCCCCCCCCNC2NC=Nc3[nH]cnc32)CC1 (stereo not drawn) ; field requested: GI50
> 100 µM (inactive)
